Target: nucleolin RBD1,2 (NCL RBD1,2) (UniProt P19338 307-466)
Test: fluorescence titration; PDS (pre-formed G4/ligand complex); Oligonucleotide annealed in 10 mM lithium cacodylate pH 7.2, 100 mM KCl (95 °C 10 min, then ice 10 min); titration temperature not given in the material
Details: protein: recombinant; label: 5'-Cy5; intramolecular G4, parallel in 100 mM KCl
metric: Kd (nM)
Kindly provide the numeric value in nM only, without the unit symbol.

Exercise: Please give the measured Kd for this binder: TGGTGGTGGTTGTTGTTGGTGGTGGTGGT (structured_DNA) [5'-Cy5-AT11-L2 G4]
Solution: 63
